Origin of values: PubChem BioAssay (NCI)

tested on: UO-31 renal; test: NCI-60 one-dose screen, 48 h (100 = growth as untreated, 0 = no growth, -100 = all killed); settings: 10 µM unless noted
About 83,000 compounds went through this panel and 20% of them were active in at least one assay; those are over-represented in the sample as a whole.
QUANTITY MEASURED: growth (%)
Report only the number, with the unit % understood.

The cases that follow already have their growth on record.
In [3]: df
Out[3]:
                                   compound  quantity_measured  measured_value
0                           COc1ccc(N)cc1OC             growth            90.5
1             COC(=O)CCP(CCC(=O)OC)c1ccccc1             growth            91.4
2  O=c1c2ccccc2nc(-c2ccccc2Cl)n1-c1nnc(C(F)(F)F)s1             growth            19.4
3                       ClCc1ccc(Cl)c(Cl)c1             growth            91.2
4  CC1(C)C=Cc2c(ccc3c2[N+]([O-])=C2C3=C[C@@]34NC(=O)[C@]5(CCCN5C3=O)C[C@@H]4C2(C)C)O1             growth            73.5

With those in mind, consider the next compound.
[ask] growth of CCOC(=O)C1C(C=C(C)C)C1(C)C (stereo unspecified) on UO-31 renal?
[reply] 120
